assay: wild-type E. coli BW25113 antibacterial activity – OD615, dose response (AID 638); conditions: at 100 µM (top of the series) unless noted
Hit rate of the full screen: of about 1,300 compounds, about 65 (5%) were called active.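 How the source made its calls: active means growth inhibition reaching a set limit at one or more tested doses; inactive means the rest.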 These entries were drawn from the full list. Entries with a potency or affinity are not part of this list.
Possible outcomes: true (1) = active, false (0) = inactive

1. O=C(C1CC1)N1CCc2cc(S(=O)(=O)NCCC3=CCCCC3)ccc21 | false (0)
2. CCOC(=O)N1CCN(C(=O)COc2ccc(S(=O)(=O)Nc3ccc(OCC)cc3)cc2)CC1 | false (0)
3. CC(OC(=O)c1ccccc1NCc1ccco1)C(=O)Nc1ncc(Cl)cc1Cl (stereo not drawn) | false (0)
4. Cn1c(=O)n(CCCOc2ccc(Br)cc2)c2ccccc21 | false (0)
5. CN1C(=O)C2(OCC(COc3ccc(Cl)cc3)O2)c2ccccc21 (stereo not drawn) | false (0)
6. CC(=Nc1ccc(O)cc1)c1sc2ccccc2c1O | false (0)
7. CCCN(CCC)C(=O)CSc1nc2ccccc2c(=O)n1C1CCCC1 | false (0)
8. CCOC(=O)c1cn(CC)c2cc(N3CCCCC3)c(F)cc2c1=O | false (0)
9. CCOc1ccccc1N1CCN(C(=O)Nc2ccc(F)c(Cl)c2)CC1 | false (0)
10. CCCCCc1cc(O)c2c(C)cc(=O)oc2c1 | false (0)
11. CCOC(=O)C1CCCN(c2ncnc3c2cnn3-c2ccc(Cl)cc2)C1 (stereo not drawn) | false (0)
12. CC(C)(C)C(=O)Cn1c(=N)n(Cc2ccccc2)c2ccccc21 | false (0)
13. CCOC(=O)c1cn(CC)c2cc(N3CCOCC3)c(F)cc2c1=O | false (0)
14. CCOc1ccc(S(=O)(=O)Nc2cccc(Cl)c2)cc1 | true (1)
15. CCOc1ccc(NS(=O)(=O)c2ccc(SC)cc2)cc1 | false (0)
16. O=C(NCc1ccco1)c1cc2sccc2n1Cc1ccccc1 | false (0)
17. CCc1c(O)nc(SCC(=O)Nc2ccc(C)cc2)n(C2CCCCC2)c1=O | false (0)
18. COc1ccc(CNC(=O)c2cc(-c3ccccc3OC)on2)cc1 | false (0)
19. Cc1nc2c(C(=O)NCc3ccc4c(c3)OCO4)c[nH]n2c(=O)c1Cc1ccccc1F | false (0)
20. COc1ccc(Cl)cc1N1CCN(CCNC(=O)Nc2ccccc2C)CC1 | false (0)
21. CCOC(=O)c1c(-c2cccs2)csc1NC(=O)CN1CC(C)OC(C)C1 (stereo not drawn) | false (0)
22. O=C(Nc1ccc(N2CCN(C(=O)c3ccco3)CC2)c(Cl)c1)c1cccs1 | false (0)
23. O=C(Nc1ccc(Cl)cc1)N(Cc1cccs1)Cc1cccs1 | false (0)

====

test: wild-type E. coli BW25113 antibacterial activity – OD615, dose response (AID 638); settings: at 100 µM (top of the series) unless noted
Screen size: about 1,300 compounds; about 65 (5%) were called active. Not all results are given here. Measured potencies and affinities stand elsewhere.
metric: growth inhibition (%)

1. c1csc(-c2noc(COc3ccc4c(c3)CCCC4)n2)c1 | 14.2
2. CCOC(=O)c1cnc(-n2nc(C)cc2C)nc1NC1CCCCC1 | -4.22
3. COC(=O)c1ccsc1NC(=O)CN1CCN(c2ccc(F)cc2)CC1 | -9.19
4. CC1CCCc2sc3nc(NCc4ccco4)n4ncnc4c3c21 (stereo unspecified) | -3.17
5. O=c1c2c(nc3c(-c4cccc5ccccc45)c[nH]n13)CCC2 | -1.35
6. Cc1ccccc1CSc1nc2n(n1)C(c1cccs1)C1=C(CCCC1=O)N2 (stereo unspecified) | -14.8
7. O=C(c1cccc(COc2ccc(Cl)cc2Cl)c1)N1CCN(c2ccccn2)CC1 | -14.7
8. CCOC(=O)c1ccccc1NC(=O)C(C)Oc1ccccc1 (stereo unspecified) | -0.25
9. Fc1ccc(-n2c(Cc3ccccc3)nnc2SCc2nc(-c3cccs3)no2)cc1 | -13.2
10. COc1ccc(-c2noc(Cc3ccc(Cl)cc3)n2)cc1OC | 7.9
11. CCCn1c(CNc2ccc(Br)cc2)nc2ccccc21 | 7.8

====

assay: wild-type E. coli BW25113 antibacterial activity – OD615, dose response (AID 638); conditions: at 100 µM (top of the series) unless noted
The whole screen tested about 1,300 compounds, of which about 65 (5%) were called active. These entries were drawn from the full list. Results with a measured potency or affinity are listed apart.
Attribute: growth inhibition
metric: growth inhibition

1) COCc1cc(C)nc2sc3c(=O)oc(C)nc3c12 | 10.4% (inactive)
2) COc1ccc2nc(SCC(=O)N(C)C3CCCCC3)c(C#N)cc2c1 | -2.36% (inactive)
3) O=C(COc1ccc2ccccc2c1Br)N1CCN(c2ccccn2)CC1 | -12.5% (inactive)
4) c1ccc(-c2nc(CSc3nnc(-c4cccs4)o3)cs2)cc1 | -5.14% (inactive)
5) CC(C)Cn1c(=O)c(C(=O)Nc2cnccn2)c(O)c2ccccc21 | 16.1% (inactive)
6) COc1ccc(C)cc1NC(=O)CSc1nnc(COc2ccccc2)n1Cc1ccco1 | 0.64% (inactive)
7) O=C1c2ccccc2C(O)(Cc2ccccc2)N1C1CCCCC1 (stereo not given) | -0.01% (inactive)
8) Clc1ccc(OCCn2ccnc2)c2ccccc12 | 12.7% [at 50 µM] (inactive)
9) N#C/C(=C\c1cccs1)Sc1nc2ccccc2s1 | -8.78% (inactive)
10) N#Cc1c(NC(=O)c2ccc(Br)o2)n(-c2ccccc2)c2nc3ccccc3nc12 | -13.4% (inactive)
11) Clc1ccc(C2=Nn3c(nnc3-c3n[nH]c4c3CCC4)SC2)cc1Cl | 1.98% (inactive)
12) O=C(NCc1ccco1)C(c1cccs1)N(C(=O)C1COc2ccccc2O1)c1cccc(O)c1 (stereo not given) | 1.03% (inactive)
13) O=C(Nc1nnc(-c2ccc(F)cc2)o1)c1ccco1 | 1.59% (inactive)
14) CCOc1ccc2[nH]c3c(N4CCN(c5ccccn5)CC4)ncnc3c2c1 | -8.17% (inactive)
15) C=CCn1c(NC(C)c2cc(Cl)ccc2O)nc2ccccc21 (stereo not given) | 13.7% (inactive)

====

This section presents molecules with their documented growth inhibition values.
assay: wild-type E. coli BW25113 antibacterial activity – OD615, dose response (AID 638); details: at 100 µM (top of the series) unless noted
Out of some 1,300 compounds screened, about 65 (5%) were called active. These entries were drawn from the full list. Measured potencies and affinities stand elsewhere.
metric: growth inhibition

1) O=C(Nc1ccc(S(=O)(=O)N2CCCc3ccccc32)cc1)C1CCCO1 (stereo unspecified) | -2.99% (inactive)
2) Cn1c(=O)c2c(SCc3cccnc3)nc(CC(C)(C)C)nc2n(C)c1=O | 1.92% (inactive)
3) COc1cc(NS(=O)(=O)c2ccc(Br)cc2)c(OC)cc1NC(=O)c1ccco1 | -12% (inactive)
4) Cc1onc(-c2c(F)cccc2Cl)c1C(=O)Nc1nc2c(s1)CCCC2 | -5.05% (inactive)
5) COC(=O)c1ccc(NC(=O)CN2CCN(c3cccc(Cl)c3)CC2)cc1 | -2.21% (inactive)
6) O=C(Nc1ccc(Cl)c(Cl)c1)N1CCSC1c1ccco1 (stereo unspecified) | 15.6% (inactive)
7) COc1cccc(N2CC(C(=O)Nc3ccc(C(=O)OC(C)C)cc3)CC2=O)c1 (stereo unspecified) | 5.31% (inactive)
8) O=C1OC(c2ccc(O)cc2)(c2ccc(O)cc2)c2ccccc21 | 24.6% (active)
9) CCC(Oc1ccccc1)C(=O)Nc1ccc(-c2nnc(-c3ccco3)o2)cc1 (stereo unspecified) | -9.73% (inactive)
10) Cn1c(=O)c2c(nc(N3CCCCCC3)n2Cc2cccc3ccccc23)n(C)c1=O | -1.26% (inactive)
11) O=C(Nc1ccccc1N1CCCCC1)c1cccs1 | 1.03% (inactive)

====

As shown below, each of these molecules has a reported growth inhibition value.
assay: wild-type E. coli BW25113 antibacterial activity – OD615, dose response (AID 638); conditions: at 100 µM (top of the series) unless noted
Screen size: about 1,300 compounds; about 65 (5%) were called active. These entries were drawn from the full list. Results with a measured potency or affinity are listed apart.
metric: growth inhibition (%)

1. CC1=CCC(COC(=O)Nc2ccccc2)CC1 (stereo unspecified) | 10.3
2. N=c1n(CCN2CCOCC2)c2ccccc2n1CC(=O)c1ccc(Cl)c(Cl)c1 | -3.82
3. CC1CCN(c2nc3ccccc3nc2C(C#N)S(=O)(=O)c2ccccc2)CC1 (stereo unspecified) | -11.4
4. COc1ccc(C2CC(c3ccccc3)n3nc(NC(=O)c4cccs4)nc3N2)cc1 (stereo unspecified) | 3.83
5. O=C(Nc1nc2ccccc2n1CCOc1ccc(Cl)cc1)c1ccco1 | 3.35
6. CSCCOC(=O)C1=C(C)NC(=O)CC1c1ccccc1Cl (stereo unspecified) | 3.74
7. C=C(C)COc1ccc(-c2n[nH]c(C)c2-c2ccccc2OC)c(O)c1 | 8.4
8. CN(c1ccccc1C(=O)Nc1ccc(S(=O)(=O)N2CCCCC2)cc1)S(C)(=O)=O | -1.44
9. CCn1c2ccccc2c2cc(NC(=O)c3ccco3)ccc21 | -3.49
10. C=C(C)Cn1c(N2CCC(Cc3ccccc3)CC2)nc2c1c(=O)[nH]c(=O)n2C | -2.32
11. C=C(C)COc1ccc(-c2n[nH]c(C)c2-c2ccccc2)c(O)c1 | 20.5
